System: SK-OV-3
assay-procedure: NCI tumour cell line growth inhibition, 48 h
Activity calls are given as the source filed them. Cut-off read from the data, not from the text of the source: active = GI50 up to about 1.1 µM and inactive = higher.
measurement-name: GI50

[ask] Any idea what its GI50 is? The compound is COc1ccc(/C=N/NS(=O)(=O)c2ccc(/C=C3\NC(=O)NC3=O)cc2)cc1
[reply] 73.5 µM (inactive)

[ask] Any idea what its GI50 is? The compound is COc1cc(/C=C/C=C2\CCC/C(=C\C=C\c3ccc(O)c(OC)c3)C2=O)ccc1O
[reply] 5.81 µM (inactive)

---

In this section we review reported GI50 values for a set of compounds.
Test system: SF-295
assay-procedure: NCI tumour cell line growth inhibition, 48 h
Active and inactive are the calls of the source. Rule as the data show it: active = GI50 up to about 1.1 µM and inactive = higher.

[
  {
    "compound": "COc1ccc(-n2c3c(c4c(CN(C)C)c(O)ccc42)C(=O)c2ccccc2C3=O)cc1",
    "experimental-result": "14.7 µM (inactive)"
  }
]

[ask] # query: GI50 | item COC1=C2C[C@](OC)(C#CC=CC#CC2O)CC1(C)C (stereo partly specified) | system: SF-295
[reply] > 100 µM (inactive)

[ask] # query: GI50 | item COC(=O)/C=C1\C(=O)Nc2ccc(Br)cc21 | system: SF-295
[reply] 2.3 µM (inactive)

[ask] # query: GI50 | item Cc1c(C#N)c2ccccc2c2nc3ccccc3n12 | system: SF-295
[reply] > 100 µM (inactive)

[ask] # query: GI50 | item C=CN1C(=O)OC[C@@H]1c1ccccc1 | system: SF-295
[reply] > 100 µM (inactive)

[ask] # query: GI50 | item O=C1c2ccncc2C(=O)c2c(O)ccc(O)c21 | system: SF-295
[reply] 12.6 µM (inactive)

[ask] # query: GI50 | item Cn1c(S)nnc1CNc1ccc(-c2nnc(S)n2C)cc1 | system: SF-295
[reply] > 100 µM (inactive)

[ask] # query: GI50 | item O=C1N/C(=N/N=C\C(O)C(O)C(O)C(O)CO)N/C1=C/c1ccc(Cl)cc1 (stereo unspecified) | system: SF-295
[reply] > 100 µM (inactive)

The reported numbers originate from ChEMBL document CHEMBL1201862.
